Target: T1, ST receptor (rat intestinal membrane) (rat), P23897
T1 chain: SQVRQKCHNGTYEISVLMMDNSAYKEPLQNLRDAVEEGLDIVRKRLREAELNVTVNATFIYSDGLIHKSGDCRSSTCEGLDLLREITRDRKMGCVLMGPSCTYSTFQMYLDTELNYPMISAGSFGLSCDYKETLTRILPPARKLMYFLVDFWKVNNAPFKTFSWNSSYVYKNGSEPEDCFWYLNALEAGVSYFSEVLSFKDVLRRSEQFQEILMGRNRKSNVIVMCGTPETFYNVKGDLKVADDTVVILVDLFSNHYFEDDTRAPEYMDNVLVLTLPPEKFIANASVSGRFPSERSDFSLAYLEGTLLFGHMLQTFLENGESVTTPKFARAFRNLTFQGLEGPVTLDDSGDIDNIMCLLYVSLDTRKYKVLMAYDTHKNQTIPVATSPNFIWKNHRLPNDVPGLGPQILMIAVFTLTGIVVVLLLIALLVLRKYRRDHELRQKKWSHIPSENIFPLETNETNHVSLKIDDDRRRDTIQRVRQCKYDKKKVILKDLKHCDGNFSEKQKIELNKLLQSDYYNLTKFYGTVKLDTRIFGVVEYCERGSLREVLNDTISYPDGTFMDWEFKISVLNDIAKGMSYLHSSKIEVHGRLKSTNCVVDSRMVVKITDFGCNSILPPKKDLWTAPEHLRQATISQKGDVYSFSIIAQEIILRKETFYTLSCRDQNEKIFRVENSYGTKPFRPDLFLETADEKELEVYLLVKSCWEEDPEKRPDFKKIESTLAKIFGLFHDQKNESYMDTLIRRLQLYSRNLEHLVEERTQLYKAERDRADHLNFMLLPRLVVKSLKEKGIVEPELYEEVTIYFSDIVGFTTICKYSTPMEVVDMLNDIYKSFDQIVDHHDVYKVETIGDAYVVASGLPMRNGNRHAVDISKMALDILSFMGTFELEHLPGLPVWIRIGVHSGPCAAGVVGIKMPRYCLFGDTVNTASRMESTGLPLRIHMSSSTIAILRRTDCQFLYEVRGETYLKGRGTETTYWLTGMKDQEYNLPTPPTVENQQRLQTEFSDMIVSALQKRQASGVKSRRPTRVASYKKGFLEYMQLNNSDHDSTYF
Assay: radioligand competition binding against [125I]ST1-17 on rat intestinal membrane
pKi: −log10 of the molar value.
Rule: pKi under 9 gives no, otherwise yes.

Some solved cases for reference:
Binder	Assigned Label
CCELCCNPACAGCY (modifications not checked) [ST5-18]	yes
CCELCCNPACAGCY (modifications not checked) [CA1-ST5-18]	no

Q. Given the entry KKKKKKGCCELCCNPACAGCY (modifications not checked) [CA1-(Lys)6-Gly-ST5-18] , answer whether its pKi meets or surpasses 9.
A. no

These measurements were taken from patent US20060222593A1.
